Source listed as patent US9957271B2.

Biological target: SIRT1 (Homo sapiens)
Sequence (Q96EB6 1-747): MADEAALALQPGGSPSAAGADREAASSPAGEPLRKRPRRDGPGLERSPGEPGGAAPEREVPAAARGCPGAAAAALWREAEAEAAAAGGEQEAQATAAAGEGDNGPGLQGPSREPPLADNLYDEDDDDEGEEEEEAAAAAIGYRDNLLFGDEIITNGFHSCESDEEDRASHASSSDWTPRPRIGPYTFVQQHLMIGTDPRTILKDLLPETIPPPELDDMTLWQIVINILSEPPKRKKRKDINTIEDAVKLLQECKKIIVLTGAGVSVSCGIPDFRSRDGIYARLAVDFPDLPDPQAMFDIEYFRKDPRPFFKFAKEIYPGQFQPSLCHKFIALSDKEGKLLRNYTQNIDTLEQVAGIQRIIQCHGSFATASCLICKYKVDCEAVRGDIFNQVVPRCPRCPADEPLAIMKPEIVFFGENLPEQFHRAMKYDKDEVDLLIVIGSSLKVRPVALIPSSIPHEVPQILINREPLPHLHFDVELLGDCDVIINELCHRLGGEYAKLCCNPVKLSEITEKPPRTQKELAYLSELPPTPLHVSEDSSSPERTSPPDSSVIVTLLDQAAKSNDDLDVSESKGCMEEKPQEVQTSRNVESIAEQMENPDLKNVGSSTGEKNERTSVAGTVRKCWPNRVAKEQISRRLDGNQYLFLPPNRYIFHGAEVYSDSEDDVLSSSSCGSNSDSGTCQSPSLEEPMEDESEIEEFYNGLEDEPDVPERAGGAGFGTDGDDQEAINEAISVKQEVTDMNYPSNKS
Assay: Trp mass spectrometry assay of SIRT1 activity
Type: biochemical
Details: Trp assay; concentration giving 150% activation of SIRT1
propertyMeasured: Trp EC1.5 (μM)

Worked cases, Trp EC1.5 (μM) given:
>>> value("O=C(Nc1ccc(F)cn1)c1cnc2ccc(N3CCCC(C(F)(F)F)C3)nn12 (stereo not shown) [Compound 900]")
"A (EC1.5<1 μM)"
>>> value("O=C(Nc1cccc(N2CCOCC2)n1)c1cnc2ccc(-c3cccc(OCC(O)CO)c3)nn12 (stereo not shown) [Compound 372]")
"A (EC1.5<1 μM)"
>>> value("Cc1cnc(NC(=O)c2c(C)nc3ccc(-c4cccc(OC[C@H](O)CO)c4)nn23)s1 [Compound 823]")
"A (EC1.5<1 μM)"
>>> value("N#Cc1ccccc1-c1ccc2ncc(NC(=O)c3cccc(N4CCC4)n3)n2n1 [Compound 338]")
"A (EC1.5<1 μM)"
>>> value("O=C(Nc1ccccn1)c1cnc2ccc(-c3cccc(OC[C@H](O)CO)c3)nn12 [Compound 847]")
"A (EC1.5<1 μM)"
>>> value("CO[C@H]1CCN(c2ccc3ncc(C(=O)Nc4cccnc4)n3n2)C1 [Compound 934]")
"B (EC1.5 1-25 μM)"

Dear colleague, I am looking for the recorded Trp EC1.5 (μM) of the following compound: COc1cccc(NC(=O)c2cnc3ccc(-c4ccccc4Cl)nn23)n1 [Compound 261]
A (EC1.5<1 μM)
